Items are presented alongside their recorded Kinact.
SYSTEM_UNDER_TEST: S-adenosyl-L-methionine:delta24-sterol-C-methyltransferase (Glycine max) (UniProt Q43445)
Sequence (Q43445 as listed by the source): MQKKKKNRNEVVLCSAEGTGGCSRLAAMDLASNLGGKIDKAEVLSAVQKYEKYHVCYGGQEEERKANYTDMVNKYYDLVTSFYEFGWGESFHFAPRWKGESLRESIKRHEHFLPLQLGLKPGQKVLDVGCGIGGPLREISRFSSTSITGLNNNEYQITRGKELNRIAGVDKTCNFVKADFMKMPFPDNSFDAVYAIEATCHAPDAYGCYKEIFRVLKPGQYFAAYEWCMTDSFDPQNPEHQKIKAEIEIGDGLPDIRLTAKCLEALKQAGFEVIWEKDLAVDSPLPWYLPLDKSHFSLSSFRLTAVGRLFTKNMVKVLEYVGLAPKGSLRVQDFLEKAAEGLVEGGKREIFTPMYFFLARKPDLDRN
ASSAY_COMMENT: Inhibition of soybean recombinant SMT expressed in Escherichia coli
PROPERTY_LABEL: Kinact (min⁻¹)

compound="C=C/C(C)=C/CCC(C)[C@H]1CC[C@@]2(C)[C@@H]3CC[C@H]4C(C)(C)[C@@H](O)CCC45CC35CC[C@]12C (some centres undefined)" result=0.24
compound="C#C/C(C)=C/CCC(C)[C@H]1CC[C@@]2(C)[C@@H]3CC[C@H]4C(C)(C)[C@@H](O)CCC45CC35CC[C@]12C (some centres undefined)" result=0.06
compound="CC(C)=CCC[C@@H](C)[C@H]1CC[C@@]2(C)[C@@H]3CC[C@H]4C(C)(C)[C@@H](O)CCC45CC35CC[C@]12C (some centres undefined)" result=0.29
compound="CC(C)SCC[C@@H](C)[C@H]1CC[C@@]2(C)[C@@H]3CC[C@H]4C(C)(C)[C@@H](O)CCC45CC35CC[C@]12C (some centres undefined)" result=0.3
